Target: recombinant human NK3 receptor (Homo sapiens, UniProt P29371)
Construct: expressed in transfected cells; host or cells: HEK293 cells, transient expression; membranes
Sequence (P29371 1-465): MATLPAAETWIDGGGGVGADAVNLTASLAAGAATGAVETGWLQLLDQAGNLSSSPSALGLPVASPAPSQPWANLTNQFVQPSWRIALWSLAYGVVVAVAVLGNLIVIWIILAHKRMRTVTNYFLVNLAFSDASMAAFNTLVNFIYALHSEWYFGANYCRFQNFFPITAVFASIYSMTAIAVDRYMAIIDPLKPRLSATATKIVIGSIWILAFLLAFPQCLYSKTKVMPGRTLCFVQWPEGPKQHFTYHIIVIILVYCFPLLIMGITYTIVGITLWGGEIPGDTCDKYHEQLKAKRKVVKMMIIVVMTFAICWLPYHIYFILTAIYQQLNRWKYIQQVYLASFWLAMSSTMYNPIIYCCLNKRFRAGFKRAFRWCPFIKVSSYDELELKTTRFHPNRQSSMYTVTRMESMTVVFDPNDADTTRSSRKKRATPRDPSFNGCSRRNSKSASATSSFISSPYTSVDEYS
Experiment: [3H]SR142801 competition binding assay
Entries and their log10(Ki) values follow.
Plainly stated, the numbers are log10 of Ki given in nM.

// below: answered molecules
| molecule | assayed-system | log10(Ki) |
| --- | --- | --- |
| CN(C(=O)OCCC(F)(F)F)[C@H]1CN(C(=O)C2CCN(C(=O)C3(C)CC3)CC2)C[C@@H]1c1ccc(Cl)c(Cl)c1 (stereo in doubt) [Example 86] | recombinant human NK3 receptor (Homo sapiens, UniProt P29371) | 1.78 |
| CN(C(=O)OC1CC(F)(F)C1(F)F)[C@@H]1CN(C(=O)C2CCN(C(=O)C3(C)CC3)CC2)C[C@H]1c1ccc(Cl)cc1 (stereo partly shown) | recombinant human NK3 receptor (Homo sapiens, UniProt P29371) | 1.56 |
| CN(C(=O)Oc1ccccc1)[C@@H]1CN(C(=O)C2CCN(c3ccc(C#N)cn3)CC2)C[C@H]1c1ccc(Cl)cc1 | recombinant human NK3 receptor (Homo sapiens, UniProt P29371) | 0.86 |
| CN(C(=O)Oc1ccc(F)cc1)[C@@H]1CN(C(=O)C2CCN(C(=O)CC#N)CC2)C[C@H]1c1ccc(Cl)c(Cl)c1 | recombinant human NK3 receptor (Homo sapiens, UniProt P29371) | -1.00 |
| Cc1cc([C@H]2CN(C(=O)C3CCN(C(=O)C4(C)CC4)CC3)C[C@@H]2N(C)C(=O)Oc2ccc(F)cc2)ccc1Cl (racemic) | recombinant human NK3 receptor (Homo sapiens, UniProt P29371) | 0.26 |
| CN(C(=O)Oc1ccc(F)cc1)[C@@H]1CN(C(=O)C2CCN(C(=O)[C@@H]3CC(=O)N3)CC2)C[C@H]1c1ccc(Cl)cc1 | recombinant human NK3 receptor (Homo sapiens, UniProt P29371) | 1.03 |

Param item: CN(C(=O)Oc1ccc(F)cc1)[C@H]1CN(C(=O)C2CCN(c3ccc(C#N)cn3)CC2)C[C@@H]1c1ccc(Cl)cc1 ; param system: recombinant human NK3 receptor (Homo sapiens, UniProt P29371); output log10(Ki): 1.28

Param item: CN(C(=O)Oc1ccc(F)cc1)[C@@H]1CN(C(=O)C2CCOC(C)(C)C2)C[C@H]1c1ccc(Cl)cc1 (stereo partly shown) ; param system: recombinant human NK3 receptor (Homo sapiens, UniProt P29371); output log10(Ki): 0.83

Param item: CN(C(=O)Oc1ccc(F)cc1)[C@@H]1CN(C(=O)C2CCN(c3ncccn3)CC2)C[C@H]1c1ccc(Cl)cc1 ; param system: recombinant human NK3 receptor (Homo sapiens, UniProt P29371); output log10(Ki): 1.20

Param item: CN(C(=O)Oc1ccc(F)cc1)[C@@H]1CN(C(=O)C2CCN(C(=O)C3CCOCC3)CC2)C[C@H]1c1ccc(Cl)c(Cl)c1 ; param system: recombinant human NK3 receptor (Homo sapiens, UniProt P29371); output log10(Ki): -0.05

Param item: CN(C(=O)OC1CCC(F)(F)CC1)[C@H]1CN(C(=O)C2CCN(C(=O)C3(C)CC3)CC2)C[C@@H]1c1ccc(Cl)c(Cl)c1 (racemic) ; param system: recombinant human NK3 receptor (Homo sapiens, UniProt P29371); output log10(Ki): 0.60

Param item: CN(C(=O)Oc1ccc(F)cc1)[C@@H]1CN(C(=O)[C@H]2CC[C@@H](O)CC2)C[C@H]1c1ccc(Cl)c(Cl)c1 ; param system: recombinant human NK3 receptor (Homo sapiens, UniProt P29371); output log10(Ki): 0.23

Param item: CN(C(=O)Oc1ccc(F)cc1)[C@H]1CN(C(=O)C2CCN(C(=O)C3(C)CC3)CC2)C[C@@H]1c1ccc(Cl)c(Cl)c1 [Example 5] ; param system: recombinant human NK3 receptor (Homo sapiens, UniProt P29371); output log10(Ki): 1.75

Param item: CN(C(=O)Oc1ccc(F)cc1)[C@@H]1CN(C(=O)C2CCN(C(=O)C3(C#N)CC3)CC2)C[C@H]1c1ccc(Cl)c(Cl)c1 ; param system: recombinant human NK3 receptor (Homo sapiens, UniProt P29371); output log10(Ki): -0.10

---

Entries and their Ki values follow.
target: recombinant human NK3 receptor (Homo sapiens); construct: expressed in transfected cells; host or cells: HEK293 cells, transient expression; membranes; assay: [3H]SR142801 competition binding assay
Give the number; nM is assumed, so skip it.

// below: answered compounds
| compound | Ki / nM |
| --- | --- |
| CN(C(=O)Oc1ccc(F)cc1)[C@@H]1CN(C(=O)C2CCN(C(=O)C3(C)CC3)CC2)C[C@@H]1c1ccc(Cl)c(Cl)c1 (stereo in doubt) | 31.4 |
| CN(C(=O)Oc1ccc(Cl)cc1)[C@@H]1CN(C(=O)C2CCN(c3ccc(C#N)cn3)CC2)C[C@H]1c1ccc(Cl)cc1 | 0.3 |
| CN(C(=O)Oc1ccc(F)cc1)[C@@H]1CN(C(=O)C2CCN(C3CCS(=O)(=O)CC3)CC2)C[C@H]1c1ccc(Cl)cc1 | 0.2 |

# compound CN(C(=O)Oc1ccc(F)cc1)[C@H]1CN(C(=O)C2CCN(CC3CC3)CC2)C[C@@H]1c1ccc(Cl)c(Cl)c1 (racemic) ; its Ki = 1.8

# compound COc1ccc(OC(=O)N(C)[C@@H]2CN(C(=O)C3CCN(CC4CC4)CC3)C[C@H]2c2ccc(Cl)c(Cl)c2)cc1 ; its Ki = 10.4

# compound CN(C(=O)Oc1ccc(F)cc1)[C@@H]1CN(C(=O)C2CCN(c3ccc(Cl)nn3)CC2)C[C@H]1c1ccc(Cl)cc1 ; its Ki = 0.3

---

Entries and their log10 Ki values follow.
Molecular target: recombinant human NK3 receptor (Homo sapiens)
Construct: expressed in transfected cells; host or cells: HEK293 cells, transient expression; membranes
Sequence (P29371 1-465): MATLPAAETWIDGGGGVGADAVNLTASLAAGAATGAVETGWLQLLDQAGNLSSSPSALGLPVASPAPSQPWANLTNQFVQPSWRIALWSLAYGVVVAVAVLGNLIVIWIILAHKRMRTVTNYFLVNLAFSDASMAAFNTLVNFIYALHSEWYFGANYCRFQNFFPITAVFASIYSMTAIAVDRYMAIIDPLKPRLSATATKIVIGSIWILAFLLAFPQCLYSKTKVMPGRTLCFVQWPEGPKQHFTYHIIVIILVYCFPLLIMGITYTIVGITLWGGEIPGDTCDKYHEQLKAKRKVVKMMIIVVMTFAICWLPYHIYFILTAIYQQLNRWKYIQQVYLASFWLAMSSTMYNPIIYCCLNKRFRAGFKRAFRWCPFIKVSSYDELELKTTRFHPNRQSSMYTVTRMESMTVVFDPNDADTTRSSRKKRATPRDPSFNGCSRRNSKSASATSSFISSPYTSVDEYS
Assay: [3H]SR142801 competition binding assay
Plainly stated, the numbers are log10 of Ki given in nM.

| compound | value |
| --- | --- |
| CN(C(=O)Oc1ccc(F)cc1)[C@@H]1CN(C(=O)C2CCN(C(=O)CC#N)CC2)C[C@H]1c1ccc(F)cc1 [Example 284] | 1.49 |
| CN(C(=O)Oc1ccc(F)cc1)[C@@H]1CN(C(=O)C2CCN(C(=O)C3CC(F)(F)C3)CC2)C[C@H]1c1ccc(Cl)c(Cl)c1 [Example 268] | -0.22 |
| CN(C(=O)Oc1ccc(F)cc1)[C@@H]1CN(C(=O)C2CCN(C(=O)C3(C(F)(F)F)CCC3)CC2)C[C@H]1c1ccc(Cl)c(Cl)c1 [Example 270] | -0.22 |

# compound CN(C(=O)Oc1ccc(F)cc1)[C@H]1CN(C(=O)C2CCN(c3ccc(C#N)cn3)CC2)C[C@@H]1c1ccc(Cl)c(Cl)c1 (racemic) [Example 80] ; its log10 Ki = -0.52

# compound COC1CCC(OC(=O)N(C)[C@@H]2CN(C(=O)C3CCN(c4ccc(C#N)cn4)CC3)C[C@H]2c2ccc(Cl)cc2)CC1 (stereo partly shown) [Example 238] ; its log10 Ki = 1.68

# compound CN(C(=O)Oc1ccc(F)cc1)[C@@H]1CN(C(=O)C2CCN(c3ccc(C#N)nc3)CC2)C[C@H]1c1ccc(Cl)cc1 [Example 198] ; its log10 Ki = -0.30

# compound CN(C(=O)Oc1ccc(F)cc1)[C@@H]1CN(C(=O)C2CCN(C(=O)C3CC3(C)C)CC2)C[C@H]1c1ccc(Cl)cc1 (stereo partly shown) [Example 260] ; its log10 Ki = 0.18

# compound CN(C(=O)O[C@H]1CC[C@@H](C)CC1)[C@@H]1CN(C(=O)C2CCN(c3ccc(C#N)cn3)CC2)C[C@H]1c1ccc(Cl)cc1 [Example 220] ; its log10 Ki = 1.63
